Target: rat histamine H3 receptors (Rattus norvegicus, UniProt Q9QYN8)
Sequence (Q9QYN8 whole entry): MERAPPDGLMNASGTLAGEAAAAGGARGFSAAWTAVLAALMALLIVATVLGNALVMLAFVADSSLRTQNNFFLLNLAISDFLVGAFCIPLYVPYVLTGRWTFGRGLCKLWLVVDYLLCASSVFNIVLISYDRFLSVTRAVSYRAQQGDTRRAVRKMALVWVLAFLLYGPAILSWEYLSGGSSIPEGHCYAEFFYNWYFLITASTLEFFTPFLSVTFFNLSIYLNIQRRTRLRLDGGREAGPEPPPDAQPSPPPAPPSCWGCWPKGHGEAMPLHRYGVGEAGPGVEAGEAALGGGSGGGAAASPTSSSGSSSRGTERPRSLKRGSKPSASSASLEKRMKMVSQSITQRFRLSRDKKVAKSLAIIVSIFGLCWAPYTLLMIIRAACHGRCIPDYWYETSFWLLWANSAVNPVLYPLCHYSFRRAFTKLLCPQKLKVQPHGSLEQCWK
pKi: −log10 of the molar value.
Each entry below lists one item and its recorded pKi value.
MEASURED_ATTRIBUTE: pKi

1) CC(=O)Nc1ccc(CN2CCN3C[C@H](COCCCN4CCCCC4)CC[C@H]3C2)cc1 (stereo in doubt)	7.15
2) CC(=O)c1ccc(CN2CCN3C[C@H](COCCCN4CCCCC4)CC[C@H]3C2)cc1 (stereo in doubt)	7.46
3) CN1CCN2C[C@H](COCCCN3CCCCC3)CC[C@H]2C1 (stereo in doubt)	6.94
4) COc1ccc(CN2CCN3C[C@H](COCCCN4CCCCC4)CC[C@H]3C2)cc1 (relative stereo)	7.26
5) c1ccc(CCCN2CCN3C[C@H](COCCCN4CCCCC4)CC[C@H]3C2)cc1 (stereo in doubt)	7.43
6) Fc1cccc(CN2CCN3C[C@H](COCCCN4CCCCC4)CC[C@H]3C2)c1 (stereo in doubt)	8.05
7) COc1cccc(CN2CCN3C[C@H](COCCCN4CCCCC4)CC[C@H]3C2)c1 (stereo in doubt)	7.55
8) c1ccc(CCN2CCN3C[C@H](COCCCN4CCCCC4)CC[C@H]3C2)cc1 (stereo in doubt)	7.27
9) CS(=O)(=O)c1ccc(CN2CCN3C[C@@H](COCCCN4CCCCC4)CC[C@H]3C2)cc1 (stereo in doubt)	7.59
10) c1ccc(CN2CCN3C[C@H](COCCCN4CCCCC4)CC[C@H]3C2)cc1 (stereo in doubt)	6.90
11) Fc1ccc(CN2CCN3C[C@H](COCCCN4CCCCC4)CC[C@H]3C2)cc1 (stereo in doubt)	7.59
12) CC(=O)c1ccc(CN2CCN3C[C@@H](COCCCN4CCCCC4)CC[C@H]3C2)cc1 (stereo in doubt)	7.22
13) C1CCN(CCCOC[C@@H]2CC[C@H]3CNCCN3C2)CC1 (stereo in doubt) [Intermediate 3]	6.81
